# System: Wolbachia pipientis
# Test Method Notes: Anti-Wolbachia Cell-Based Screen
# Format: functional
# Design: scale not given: in the data most compounds retested in dose-response had high values
# Settings: 5 µM
Out of some 48,000 compounds screened, about 13,000 (27%) showed an effect of 50% or more. The list shows a part of the results.
Recorded measurements of Percent Effect, one per entry

Compound	Assayed System	Percent Effect [%]
O=C(CN1CCCCC1)Nc1ncc(Br)cc1Br	Wolbachia pipientis	116.4
CC(C)N(C)Cc1cn2c(n1)CN(C(=O)Cc1ccccc1)CC2.O=C(O)C(F)(F)F	Wolbachia pipientis	114
O=C(CN1CCCc2cc(F)cc(F)c21)Nc1ccc(Br)cn1	Wolbachia pipientis	-2.039
COCc1nccc(C2CCCN(Cc3ccccc3C#N)C2)n1 (stereo unspecified)	Wolbachia pipientis	-3.966
CCc1cc(O)nc(C2CCCN(Cc3ccncc3)C2)n1 (stereo unspecified)	Wolbachia pipientis	119.5
COc1cccc(CN(Cc2ccco2)Cc2cnc(C)n2C)c1.O=C(O)CC(O)(CC(=O)O)C(=O)O	Wolbachia pipientis	133.7
Cn1c(CN2CCOC(CNc3cccnn3)C2)nnc1C1CC1 (stereo unspecified)	Wolbachia pipientis	105.6
CCn1ccnc1CN1CCOC(CNc2cccnn2)C1 (stereo unspecified)	Wolbachia pipientis	10.18
COCc1cc(O)nc(C2CCCN(Cc3ccc(OC)cc3)C2)n1 (stereo unspecified)	Wolbachia pipientis	126.6
CCCc1n[nH]c(C2CN(C(=O)CCn3ccccc3=O)CCO2)n1 (stereo unspecified)	Wolbachia pipientis	104.2
COc1cccc(CN(Cc2ncc[nH]2)Cc2ccco2)c1.O=C(O)CC(O)(CC(=O)O)C(=O)O	Wolbachia pipientis	114.4
COCc1cc(O)nc(C2CCCN(Cc3cccc(Cl)c3Cl)C2)n1 (stereo unspecified)	Wolbachia pipientis	101.5
Cc1nc(CN2CCCCC2Cn2cccn2)nc2ccccc12 (stereo unspecified)	Wolbachia pipientis	-7.431
Clc1snnc1CN1CCOC(CNc2cccnn2)C1 (stereo unspecified)	Wolbachia pipientis	-2.392
Cc1noc(CN(Cc2ccc3c(c2)OCCO3)Cc2ccco2)n1	Wolbachia pipientis	-7.452
COc1ccc(CN(C(=O)C(C)C)c2cnn(C)c2)c(OC)c1	Wolbachia pipientis	-18.73
COCc1cc(O)nc(C2CCCN(Cc3cc(OC)ccc3F)C2)n1 (stereo unspecified)	Wolbachia pipientis	-12.81
c1cnn(CC2CCCN2Cc2noc(C3CC3)n2)c1 (stereo unspecified)	Wolbachia pipientis	88.48
O=C(Cc1ccsc1)N1CCn2cc(Cn3cncn3)nc2C1	Wolbachia pipientis	4.087
CC(C)N(C)Cc1cn2c(n1)CN(Cc1ccsc1)CC2.O=C(O)C(F)(F)F.O=C(O)C(F)(F)F	Wolbachia pipientis	6.195
COc1ncccc1C(=O)N1CCCC(c2cc(C)[nH]n2)C1 (stereo unspecified)	Wolbachia pipientis	-2.172
N#Cc1cccc(CN2CC3(CCCCN3c3cccnc3)CC2=O)c1.O=C(O)C(F)(F)F (stereo unspecified)	Wolbachia pipientis	9.304
CCc1c(C)nn(CCNC(=O)Cc2csc(C)n2)c1C	Wolbachia pipientis	-26.69
c1ccc(-c2nc(CN3CCCC3Cn3cccn3)no2)cc1 (stereo unspecified)	Wolbachia pipientis	97.29
CN(C)Cc1cc(=O)n2c(n1)CN(C(=O)Cc1ccsc1)CCC2.O=C(O)C(F)(F)F	Wolbachia pipientis	-8.762
O=C(CN1CCCCCC1)NCCSc1cnn[nH]1	Wolbachia pipientis	-5.638
CCOC(=O)C1(Cc2cccc(OC)c2)CCN(Cc2ncc[nH]2)CC1	Wolbachia pipientis	-0.1816
Cc1cc(C)n(CCN2CCOC(CNc3cccnn3)C2)n1 (stereo unspecified)	Wolbachia pipientis	103.1
CCN(CC1CN(CCc2ccccn2)CCO1)c1cccnn1 (stereo unspecified)	Wolbachia pipientis	-0.8374
Cc1cc2c(cc1C(=O)N1CC[C@H](CO)[C@@H](O)C1)OCCO2	Wolbachia pipientis	-2.803
COCc1cc(O)nc(C2CCCN(Cc3cccc(OC)c3)C2)n1 (stereo unspecified)	Wolbachia pipientis	123.8
